# EXPERIMENT_DESCRIPTION: inhibitors of measles virus growth in cells, primary screen, measles RdRp inhibitor project, cell-based, single point, HTS (AID 745)
# RECORDED_CONDITIONS: infected Vero cells, GFP fluorescence, 64 h; active compounds read low
The whole screen tested about 33,000 compounds, of which about 40 (0.1%) were called active. For the sample, actives were picked, then their nearest neighbours and some compounds at random.
MEASURED_ENDPOINT: z-score
API note: the answer field is a bare number with no unit suffix.

Asked: Please give the documented z-score of CC(C)(C)c1ccc(C(=O)Nc2ccc(N3CCOCC3)c(Cl)c2)cc1
Given back: -1.1

Asked: Please give the documented z-score of CCCCSc1nnc2c(n1)OC(c1ccc3c(c1)OCO3)N(C(C)=O)c1ccccc1-2 (stereo not given)
Given back: 0.17

Asked: Please give the documented z-score of O=P(Cc1cccc(CP(=O)(c2ccccc2)c2ccccc2)n1)(c1ccccc1)c1ccccc1
Given back: -1.8

Asked: Please give the documented z-score of COc1ccc(C2/C(=C(\O)c3ccccc3)C(=O)C(=O)N2CO)cc1 (stereo not given)
Given back: -0.38

Asked: Please give the documented z-score of Cc1ccc(C(=O)CC2(O)C(=O)N(C(C)C)c3ccccc32)c(C)c1 (stereo not given)
Given back: -0.29

Asked: Please give the documented z-score of COc1cc(NC(=O)c2cc(-c3ccc(Cl)cc3)on2)c(OC)cc1Cl
Given back: -0.12

Asked: Please give the documented z-score of COc1cccc(OC)c1C(=O)Oc1cccc2ccc(C)nc12
Given back: -0.39

Asked: Please give the documented z-score of Cc1onc(-c2ccccc2)c1C(=O)N1CCN(c2ccc(OCc3ccccc3)cc2)CC1
Given back: -0.43

Asked: Please give the documented z-score of Cn1c(=O)c(=O)n(C)c2cc(S(=O)(=O)N3CCCc4ccccc43)ccc21
Given back: -0.1

Asked: Please give the documented z-score of COc1ccc(-c2cc(C(=O)Nc3sc4c(c3C(N)=O)CCCC4)no2)cc1
Given back: 0.31
